Reference for the values: patent US12194027B2

Items are presented alongside their recorded log10(EC50).
# System: GPR68/OGR1 (Homo sapiens (Human))
# Sequence (Q15743 whole entry): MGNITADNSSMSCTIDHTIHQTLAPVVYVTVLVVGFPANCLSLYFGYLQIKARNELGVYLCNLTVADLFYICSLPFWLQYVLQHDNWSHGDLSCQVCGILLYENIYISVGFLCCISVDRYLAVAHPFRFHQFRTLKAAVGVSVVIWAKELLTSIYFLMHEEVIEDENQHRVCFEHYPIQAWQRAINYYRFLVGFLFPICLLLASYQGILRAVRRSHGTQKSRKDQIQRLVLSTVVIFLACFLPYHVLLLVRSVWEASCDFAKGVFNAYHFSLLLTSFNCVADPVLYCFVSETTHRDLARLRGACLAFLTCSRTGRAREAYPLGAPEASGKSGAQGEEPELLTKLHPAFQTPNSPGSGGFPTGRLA
# Assay details: inhibition of GPR68/OGR1 in CHEM1-OGR1 cells, Fluo-8 calcium response to acidified media
# Experimental setup: acidified media pH 6.4, Fluo-8
Measure name: log10(EC50) (log10 of the value in nM)

Compound	Measure name	Recorded result
CCc1ccc2c(c1)C1(NN=C(c3ccccc3)S1)C(=O)N2 (stereo not drawn)	log10(EC50)	3.13
CCc1ccc2c(c1)C1(NN=C(c3ccnc(OC)c3)S1)C(=O)N2 (stereo not drawn)	log10(EC50)	3.04
NS(=O)(=O)c1ccc2c(c1)C1(NN=C(c3ccccc3)S1)C(=O)N2 (stereo not drawn)	log10(EC50)	2.91
COc1ccc2c(c1)NC(=O)C21NN=C(c2ccnc(OC)c2)S1 (stereo not drawn)	log10(EC50)	3.16
O=C1Nc2ccc(Cl)cc2C12NN=C(c1ccc(F)cc1)S2 (stereo not drawn)	log10(EC50)	2.90
COc1ccc(C2=NNC3(S2)C(=O)Nc2ccc(OC)cc23)cc1 (stereo not drawn)	log10(EC50)	2.95
Cc1ccc(C2=NNC3(S2)C(=O)Nc2ccc(F)cc23)cc1 (stereo not drawn)	log10(EC50)	2.99
COc1ccc2cc(C3=NNC4(S3)C(=O)Nc3ccc(Cl)cc34)ccc2c1 (stereo not drawn)	log10(EC50)	4.66
COc1ccc2cc(C3=NNC4(S3)C(=O)Nc3ccc(F)cc34)ccc2c1 (stereo not drawn)	log10(EC50)	2.85

###

# System: GPR68 (Homo sapiens (Human))
# Sequence (Q15743 whole entry, looked up): as the sequence (Q15743 whole entry) above
# Assay details: GPR68 inhibitory activity of OGM analogs (Table 5)
Items are presented alongside their recorded IC50.

Compound	System	Result unit	IC50
CCc1ccc2c(c1)C1(NN=C(c3ccccc3O)S1)C(=O)N2 (stereo not drawn)	GPR68 (Homo sapiens (Human))	nM	3400
CN1C(=O)C2(NN=C(c3cccc4ccccc34)S2)c2ccccc21 (stereo not drawn)	GPR68 (Homo sapiens (Human))	nM	1500
CN1C(=O)C2(NN=C(c3ccccc3)S2)c2ccccc21 (stereo not drawn)	GPR68 (Homo sapiens (Human))	nM	810
Cc1ccc2c(c1)C1(NN=C(c3ccccc3)S1)C(=O)N2 (stereo not drawn)	GPR68 (Homo sapiens (Human))	nM	760
CCc1ccc2c(c1)C1(NN=C(c3ccccc3)S1)C(=O)N2 (stereo not drawn)	GPR68 (Homo sapiens (Human))	nM	710
CCc1ccc2c(c1)C1(NN=C(c3cccc4ccccc34)S1)C(=O)N2 (stereo not drawn)	GPR68 (Homo sapiens (Human))	nM	160

###

# System: GPR68/OGR1 (Homo sapiens (Human))
# Assay details: inhibition of GPR68/OGR1 in CHEM1-OGR1 cells, Fluo-8 calcium response to acidified media
# Format: cell-based
# Experimental setup: acidified media pH 6.4, Fluo-8
pEC50: −log10 of the molar value.
Measure name: pEC50

Compound	Value relation sign	Recorded result
COc1ccc2c(c1)C1(NN=C(c3cccc4cccnc34)S1)C(=O)N2 (centres unmarked)	=	5.43
COc1ccc2cc(C3=NNC4(S3)C(=O)N(CC=C(C)C)c3ccccc34)ccc2c1 (centres unmarked)	<	5.00
O=C1Nc2ccc(Cl)cc2C12NN=C(c1ccccc1)S2 (centres unmarked)	=	5.79
CCc1ccc2c(c1)C1(NN=C(c3cccc4ccccc34)S1)C(=O)N2 (centres unmarked)	=	6.77
CCc1ccc2c(c1)C1(NN=C(c3cccc4cccnc34)S1)C(=O)N2 (centres unmarked)	>	6.40
COC(=O)c1ccc2c(c1)C1(NN=C(c3cccc4cccnc34)S1)C(=O)N2 (centres unmarked)	=	5.54
CCc1ccc2c(c1)C1(NN=C(c3ccc4cc(OC)ccc4c3)S1)C(=O)N2 (centres unmarked)	<	5.00
NS(=O)(=O)c1ccc2c(c1)C1(NN=C(c3cccnc3)S1)C(=O)N2 (centres unmarked)	=	6.05
COc1ccc2cc(C3=NNC4(S3)C(=O)N(CC=C(C)C)c3ccc(Cl)cc34)ccc2c1 (centres unmarked)	<	5.00
COC(=O)c1ccc2c(c1)C1(NN=C(c3cccnc3)S1)C(=O)N2 (centres unmarked)	<	5.00
COc1ccc2c(c1)C1(NN=C(c3ccc(Cl)cc3)S1)C(=O)N2 (centres unmarked)	>	6.40
CC(C)=CCN1C(=O)C2(NN=C(c3cccc4ccccc34)S2)c2ccccc21 (centres unmarked)	<	5.00
COc1ccc2c(c1)C1(NN=C(c3cccnc3)S1)C(=O)N2 (centres unmarked)	=	5.73
COc1cc(C2=NNC3(S2)C(=O)Nc2ccc(F)cc23)ccn1 (centres unmarked)	=	6.09
COc1ccc(C2=NNC3(S2)C(=O)N(CC=C(C)C)c2ccc(Cl)cc23)cc1 (centres unmarked)	<	5.00
CC(C)=CCN1C(=O)C2(NN=C(c3cccc4ccccc34)S2)c2cc(Cl)ccc21 (centres unmarked)	<	5.00
O=C1Nc2ccc(Cl)cc2C12NN=C(c1ccc(Cl)cc1)S2 (centres unmarked)	>	6.40
